- System: S1-M1-80 cells
- protocol-notes: cells
- Type: cell-based, human
Residues, ends and D or L forms follow the SMILES beside them.
Would you kindly list IC50 for each of these compounds?

# value of IC50, S1-M1-80 cells, item CC[C@H](C)[C@H](NC(=O)[C@H](CS)NC(=O)[C@H](CCC(N)=O)NC(=O)[C@H](Cc1ccccc1)NC(=O)[C@H](CCC(=O)O)NC(=O)CNC(=O)[C@H](Cc1c[nH]c2ccccc12)NC(=O)[C@H](CCC(N)=O)NC(=O)[C@H](CC(=O)O)NC(=O)[C@H](CC(C)C)NC(=O)[C@@H](N)CS)C(=O)N[C@@H](CS)C(=O)N[C@@H](CCSC)C(=O)O [Peptide N102I471W, CLDQWGEFQCICM] (H-CLDQWGEFQCICM-OH; N-terminus and C-terminus assumed) = > 50 µM

# value of IC50, S1-M1-80 cells, item CC[C@H](C)[C@H](NC(=O)[C@H](CCC(N)=O)NC(=O)[C@H](CC(=O)O)NC(=O)[C@H](CC(C)C)NC(=O)[C@H](CS)NC(=O)[C@@H](N)Cc1ccc(O)cc1)C(=O)NCC(=O)N[C@@H](CCC(=O)O)C(=O)N[C@@H](Cc1ccccc1)C(=O)N[C@@H](CCC(N)=O)C(=O)N[C@@H](CS)C(=O)N[C@H](C(=O)N[C@@H](CS)C(=O)N[C@@H](CCC(=O)O)C(=O)O)[C@@H](C)CC [N102T466Y-M479E, YCLDQIGEFQCICE] (H-YCLDQIGEFQCICE-OH; N-terminus and C-terminus assumed) = 14.9 µM

# value of IC50, S1-M1-80 cells, item CC[C@H](C)[C@H](NC(=O)[C@H](CCC(N)=O)NC(=O)[C@H](CC(=O)O)NC(=O)[C@H](CC(C)C)NC(=O)[C@@H](N)CS)C(=O)NCC(=O)N[C@@H](CCC(=O)O)C(=O)N[C@@H](Cc1ccccc1)C(=O)N[C@@H](CCC(N)=O)C(=O)N[C@@H](CS)C(=O)N[C@H](C(=O)N[C@@H](CS)C(=O)O)[C@@H](C)CC [Peptide N103, CLDQIGEFQCIC] (H-CLDQIGEFQCIC-OH; N-terminus and C-terminus assumed) = > 50 µM

# value of IC50, S1-M1-80 cells, item CC[C@H](C)[C@H](NC(=O)[C@H](CCC(N)=O)NC(=O)[C@H](CC(=O)O)NC(=O)[C@H](CC(C)C)NC(=O)[C@@H](N)CS)C(=O)NCC(=O)N[C@@H](CCC(=O)O)C(=O)N[C@@H](Cc1ccccc1)C(=O)N[C@@H](CCC(N)=O)C(=O)N[C@@H](CS)C(=O)O [Peptide N105, CLDQIGEFQC] (H-CLDQIGEFQC-OH; N-terminus and C-terminus assumed) = > 100 µM

# value of IC50, S1-M1-80 cells, item CC[C@H](C)[C@H](N)C(=O)NCC(=O)N[C@@H](CCC(=O)O)C(=O)N[C@@H](Cc1ccccc1)C(=O)N[C@@H](CCC(N)=O)C(=O)N[C@@H](CS)C(=O)N[C@H](C(=O)N[C@@H](CS)C(=O)N[C@@H](CCSC)C(=O)N1CCC[C@H]1C(=O)NCC(=O)O)[C@@H](C)CC [Peptide N112, IGEFQCICMPG] (H-IGEFQCICMPG-OH; N-terminus and C-terminus assumed) = > 100 µM

# value of IC50, S1-M1-80 cells, item CC[C@H](C)[C@H](NC(=O)[C@H](CCC(N)=O)NC(=O)[C@H](CC(=O)O)NC(=O)[C@H](CC(C)C)NC(=O)[C@@H](N)CS)C(=O)NCC(=O)N[C@@H](CCC(=O)O)C(=O)N[C@@H](Cc1ccccc1)C(=O)N[C@@H](CCC(N)=O)C(=O)N[C@@H](CS)C(=O)N[C@H](C(=O)N[C@@H](CS)C(=O)N[C@@H](CCC(=O)O)C(=O)O)[C@@H](C)CC [Peptide N102M479E, CLDQIGEFQCICE] (H-CLDQIGEFQCICE-OH; N-terminus and C-terminus assumed) = 4.9 µM

These measurements were taken from patent US11117932B2.
